# target_desc: T1, 6His–Evasin-4 (Rhipicephalus sanguineus, UniProt P0C8E9 24-127)
# T1 sequence: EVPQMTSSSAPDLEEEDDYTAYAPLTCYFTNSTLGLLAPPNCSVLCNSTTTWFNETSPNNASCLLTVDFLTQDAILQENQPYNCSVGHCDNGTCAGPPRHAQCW
# method_notes: SPR
measure_name: log10 koff (log10 of the value in s⁻¹)
Please note: log10 values; quantity koff; unit s⁻¹.

Known log10 koff results, listed for orientation:
> print(dat)
                                      binder  measure.name  measured.number
 1  CCL17 (ligand) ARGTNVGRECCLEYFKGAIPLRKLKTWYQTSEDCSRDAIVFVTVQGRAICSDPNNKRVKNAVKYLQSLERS    log10 koff            -1.97
 2  CCL14 (ligand) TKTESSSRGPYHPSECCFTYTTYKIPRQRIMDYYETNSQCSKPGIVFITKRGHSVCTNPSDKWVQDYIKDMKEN    log10 koff            -2.83
 3  CCL16 (ligand) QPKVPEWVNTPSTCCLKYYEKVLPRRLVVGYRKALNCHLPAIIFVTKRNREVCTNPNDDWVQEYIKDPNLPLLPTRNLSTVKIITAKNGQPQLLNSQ    log10 koff            -2.51
 4  CCL19 (ligand) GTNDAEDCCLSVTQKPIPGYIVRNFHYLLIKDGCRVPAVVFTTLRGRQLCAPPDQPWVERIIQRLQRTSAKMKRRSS    log10 koff            -3.46
 5  CCL5 E26A (ligand) SPYSSDTTPCCFAYIARPLPRAHIKAYFYTSGKCSNPAVVFVTRKNRQVCANPEKKWVREYINSLEMS    log10 koff            -2.65
 6  CCL15 (ligand) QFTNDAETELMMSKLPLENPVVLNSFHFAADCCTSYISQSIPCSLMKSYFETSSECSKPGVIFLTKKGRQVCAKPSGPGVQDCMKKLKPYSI    log10 koff            -1.03
 7  CCL26 (ligand) TRGSDISKTCCFQYSHKPLPWTWVRSYEFTSNSCSQRAVIFTTKRGKKVCTHPRKKWVQKYISLLKTPKQL    log10 koff            -3.82
 8  CCL24 (ligand) VVIPSPCCMFFVSKRIPENRVVSYQLSSRSTCLKAGVIFTTKKGQQFCGDPKQEWVQRYMKNLDAKQKKASPRARAVAVKGPVQRYPGNQTTC    log10 koff            -1.90
 9  CCL3 (ligand) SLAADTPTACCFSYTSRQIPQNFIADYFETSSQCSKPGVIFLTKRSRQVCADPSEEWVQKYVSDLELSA    log10 koff            -3.05
10  CCL1 (ligand) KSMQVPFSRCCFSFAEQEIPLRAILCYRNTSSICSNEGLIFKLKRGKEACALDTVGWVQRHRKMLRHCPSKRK    log10 koff            -2.49

# per-item lookup of log10 koff; items listed below
1. CCL8 (ligand) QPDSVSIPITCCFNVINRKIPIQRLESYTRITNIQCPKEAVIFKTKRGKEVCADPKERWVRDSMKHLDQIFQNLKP
2. CCL18 (ligand) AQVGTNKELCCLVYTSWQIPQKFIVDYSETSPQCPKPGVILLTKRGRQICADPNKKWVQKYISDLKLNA
3. CCL22 (ligand) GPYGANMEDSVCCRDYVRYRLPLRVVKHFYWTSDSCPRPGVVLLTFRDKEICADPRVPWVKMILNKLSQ
4. CCL23 (ligand) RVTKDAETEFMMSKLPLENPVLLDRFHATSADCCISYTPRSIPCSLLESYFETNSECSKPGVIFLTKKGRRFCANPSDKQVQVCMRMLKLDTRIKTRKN

Response line:
1. -2.75
2. -3.28
3. -2.42
4. -4.52
